# MEASURED_TARGET: Acetylcholine receptor (Torpedo californica, UniProt P02710+P02712+P02714+P02718)
# Sequence (P02710 whole entry): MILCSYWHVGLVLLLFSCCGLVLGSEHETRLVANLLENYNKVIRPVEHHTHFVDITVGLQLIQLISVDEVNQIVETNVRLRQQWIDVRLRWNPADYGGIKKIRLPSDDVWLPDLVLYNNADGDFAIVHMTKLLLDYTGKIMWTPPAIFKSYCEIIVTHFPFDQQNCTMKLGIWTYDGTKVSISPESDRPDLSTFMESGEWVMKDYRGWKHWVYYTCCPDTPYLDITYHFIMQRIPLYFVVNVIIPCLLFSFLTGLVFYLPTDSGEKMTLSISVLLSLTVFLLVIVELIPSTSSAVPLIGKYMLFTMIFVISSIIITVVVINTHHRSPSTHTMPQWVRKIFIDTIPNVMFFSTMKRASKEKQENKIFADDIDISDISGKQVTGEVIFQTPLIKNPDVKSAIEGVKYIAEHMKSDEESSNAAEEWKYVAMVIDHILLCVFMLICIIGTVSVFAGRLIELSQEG
# Sequence (P02712 whole entry): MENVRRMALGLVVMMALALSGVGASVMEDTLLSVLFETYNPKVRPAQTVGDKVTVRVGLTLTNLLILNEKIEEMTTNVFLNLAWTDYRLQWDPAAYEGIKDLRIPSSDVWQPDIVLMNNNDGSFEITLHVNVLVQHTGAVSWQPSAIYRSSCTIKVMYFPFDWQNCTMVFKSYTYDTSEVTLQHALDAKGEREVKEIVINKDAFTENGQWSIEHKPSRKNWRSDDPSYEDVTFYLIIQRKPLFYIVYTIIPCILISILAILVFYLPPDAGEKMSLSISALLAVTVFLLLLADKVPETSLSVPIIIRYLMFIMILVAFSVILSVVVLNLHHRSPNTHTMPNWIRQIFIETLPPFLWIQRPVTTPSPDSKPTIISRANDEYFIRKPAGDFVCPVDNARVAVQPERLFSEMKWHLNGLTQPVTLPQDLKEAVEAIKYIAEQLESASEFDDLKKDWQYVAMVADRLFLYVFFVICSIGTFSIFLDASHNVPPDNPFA
# Sequence (P02718 whole entry): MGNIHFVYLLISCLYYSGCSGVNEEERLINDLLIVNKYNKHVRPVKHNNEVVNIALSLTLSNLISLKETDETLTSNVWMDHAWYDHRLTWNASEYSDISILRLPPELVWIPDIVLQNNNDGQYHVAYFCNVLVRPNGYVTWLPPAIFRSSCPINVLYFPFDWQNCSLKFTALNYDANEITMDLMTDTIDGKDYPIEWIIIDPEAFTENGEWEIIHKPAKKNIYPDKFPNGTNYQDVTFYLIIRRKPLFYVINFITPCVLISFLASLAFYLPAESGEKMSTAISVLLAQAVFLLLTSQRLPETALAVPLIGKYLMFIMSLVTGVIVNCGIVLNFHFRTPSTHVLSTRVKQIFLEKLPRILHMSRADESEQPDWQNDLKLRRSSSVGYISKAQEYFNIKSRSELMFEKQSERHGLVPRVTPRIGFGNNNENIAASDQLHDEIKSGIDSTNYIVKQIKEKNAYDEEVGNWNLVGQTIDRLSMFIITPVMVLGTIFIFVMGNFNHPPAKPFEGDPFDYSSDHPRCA
# Sequence (P02714 whole entry): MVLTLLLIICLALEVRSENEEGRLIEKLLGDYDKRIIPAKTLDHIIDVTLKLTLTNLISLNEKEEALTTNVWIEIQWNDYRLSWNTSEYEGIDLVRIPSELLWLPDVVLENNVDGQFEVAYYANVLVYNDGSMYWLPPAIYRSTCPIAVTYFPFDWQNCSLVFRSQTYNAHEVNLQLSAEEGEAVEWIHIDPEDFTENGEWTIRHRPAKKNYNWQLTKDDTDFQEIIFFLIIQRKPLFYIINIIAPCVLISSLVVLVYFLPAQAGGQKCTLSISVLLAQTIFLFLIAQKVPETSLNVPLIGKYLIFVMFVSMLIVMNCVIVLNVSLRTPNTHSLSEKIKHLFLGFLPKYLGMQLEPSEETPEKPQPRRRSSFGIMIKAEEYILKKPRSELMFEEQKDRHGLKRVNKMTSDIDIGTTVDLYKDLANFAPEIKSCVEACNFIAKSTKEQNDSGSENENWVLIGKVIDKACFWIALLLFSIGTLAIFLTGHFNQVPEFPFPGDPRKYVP
# ASSAY_PROTOCOL: In vitro ability to inhibit the binding of [125I]-alpha-bungarotoxin to nicotinic acetylcholine receptor on membranes prepared from the electric organs of Torpedo californica
# Type: tissue-based, Tetronarce californica, Electric organ
ENDPOINT: EC50 (mM)
Report the value in mM with no unit label.

Value of measured EC50 for the entry "COc1cc2c3cc1Oc1cc(ccc1O)C[C@@H]1c4c(cc(OC)c(O)c4Oc4ccc(cc4)C[C@@H]3N(C)CC2)CC[N+]1(C)C" : 3.2

###

The entries below are paired with their reported pEC50.
# MEASURED_TARGET: Acetylcholine receptor (Torpedo californica, UniProt P02710+P02712+P02714+P02718)
# ASSAY_PROTOCOL: In vitro inhibition of [125I]alpha-bungarotoxin binding to nicotinic acetylcholine receptor of Torpedo californica electric organ membranes
# Format: tissue-based, Tetronarce californica
A value of pEC50 is the negative decimal logarithm of a concentration given in moles per litre.

# annotated cases, reported pEC50 shown
COMPOUND: C=C(C=O)[C@@H]1CC2=C(C(=O)OC)C=C(O2)[C@@H]2O[C@@]2(C)C[C@H]2OC(=O)[C@@]3(O[C@H]23)[C@@H](OC(C)=O)C1
MEASURED_TARGET: Acetylcholine receptor (Torpedo californica, UniProt P02710+P02712+P02714+P02718)
DATA_VALUE: 3.98
--
COMPOUND: C=C(C)[C@@H]1CC2=C(CO)C=C(O2)[C@@H]2O[C@@]2(C)C[C@H]2OC(=O)[C@@]3(O[C@H]23)[C@@H](OC(C)=O)C1
MEASURED_TARGET: Acetylcholine receptor (Torpedo californica, UniProt P02710+P02712+P02714+P02718)
DATA_VALUE: 4.35
--
COMPOUND: C=C(CO)[C@H]1C[C@H](OC(C)=O)[C@@]23O[C@@H]2[C@@H](C[C@]2(C)O[C@H]2C2=CC(C)=C(O2)[C@@H]1OC(C)=O)OC3=O
MEASURED_TARGET: Acetylcholine receptor (Torpedo californica, UniProt P02710+P02712+P02714+P02718)
DATA_VALUE: 5.68

Value of measured pEC50 for the entry C=C(C)[C@@H]1CC2=C(C(=O)OC)C=C(O2)[C@@H]2O[C@@]2(C)C[C@@H]2C=C(C(=O)O2)[C@@H](OC(C)=O)C1 [ACETOXYPUKALIDE] : 4.04

Value of measured pEC50 for the entry CC(=O)O[C@H]1C[C@H](C2(C)CO2)[C@@H](OC(C)=O)C2=C(C)C=C(O2)[C@@H]2O[C@@]2(C)C[C@H]2OC(=O)[C@@]13O[C@H]23 (some centres not stated) : 4.60

Value of measured pEC50 for the entry "C=C(CO)[C@H]1C[C@H](O)[C@@]23O[C@@H]2[C@@H](C[C@]2(C)O[C@H]2C2=CC(C)=C(O2)[C@@H]1OC(C)=O)OC3=O" : 4.59

Value of measured pEC50 for the entry "C=C(C(=O)OC)[C@H]1C[C@H](OC(C)=O)C2=C[C@@H](C[C@]3(C)O[C@H]3C3=CC(C)=C(O3)[C@@H]1OC(C)=O)OC2=O" : 5.13

Value of measured pEC50 for the entry CC(=O)O[C@H]1C[C@H](C2(C)CO2)[C@@H](OC(C)=O)C2=C(C)C=C(O2)[C@@H]2O[C@@]2(C)C[C@@H]2C=C1C(=O)O2 (some centres not stated) : 4.92

Value of measured pEC50 for the entry "C=C(C)[C@H]1C[C@H](OC(C)=O)C2=C[C@@H](C[C@]3(C)O[C@H]3C3=CC(C)=C(O3)[C@@H]1OC(C)=O)OC2=O" : 4.84

Value of measured pEC50 for the entry "C=C(C)[C@@H]1CC2=C(C=O)C=C(O2)[C@@H]2O[C@@]2(C)C[C@@H]2C=C(C(=O)O2)[C@@H](OC(C)=O)C1" : 3.94

Value of measured pEC50 for the entry C=C(CO)[C@H]1C[C@H](OC(C)=O)[C@@]23O[C@@H]2[C@@H](CC2(C)O[C@H]2C2=CC(C)=C(O2)[C@@H]1O)OC3=O (single isomer, unassigned) : 4.09

Value of measured pEC50 for the entry "C=C(C)[C@@H]1CC2=C(C(=O)OC)C=C(O2)[C@@H]2O[C@@]2(C)C[C@H]2OC(=O)[C@@]3(O[C@H]23)[C@@H](OC(C)=O)C1" : 3.90
